Tested on: 996289-038-R-J1-PDC spheroid viability
Experiment: Anticancer human tumor 996289-038-R-J1-PDC patient-derived colon adenocarcinoma cell line growth inhibition [PI3K]
Details: second compound 1 µM; first compound 10 µM; active compounds read low; spheroids with HUVEC and MSC
Please go through the items and note down their viability, T/C.
Give bare numbers, in %.

Observe how each entry below is paired with its result.
# molecule, metric, recorded.number
data = [
    ("CNC(=O)c1ccc(N2C(=S)N(c3ccc(C#N)c(C(F)(F)F)c3)C(=O)C2(C)C)cc1F + Cc1nc(NC(=O)N2CCCC2C(N)=O)sc1-c1ccnc(C(C)(C)C(F)(F)F)c1", "viability, T/C", 70.8),
    ("CC(Cn1ccc(-c2ccc(C#N)c(Cl)c2)n1)NC(=O)c1cc(C(C)O)[nH]n1 (stereo unspecified) + Cc1nc(NC(=O)N2CCCC2C(N)=O)sc1-c1ccnc(C(C)(C)C(F)(F)F)c1", "viability, T/C", 69.3),
    ("Cn1ncc(Cl)c1-c1cc(C(=O)NC(CN)Cc2cccc(F)c2)sc1Cl (stereo unspecified) + CC(Nc1ncnc2nc[nH]c12)c1cc2cccc(Cl)c2c(=O)n1-c1ccccc1", "viability, T/C", 48.3),
    ("C=CC(=O)N1CCN(c2nc(=O)n(-c3c(C)ccnc3C(C)C)c3nc(-c4c(O)cccc4F)c(F)cc23)C(C)C1 (stereo unspecified) + Cc1nc(NC(=O)N2CCCC2C(N)=O)sc1-c1ccnc(C(C)(C)C(F)(F)F)c1", "viability, T/C", 80.1),
    ("C[C@@H](NC(=O)c1ncnc(N)c1Cl)c1ncc(C(=O)Nc2cc(C(F)(F)F)c(Cl)cn2)s1 + COc1c(OCCCN2CCOCC2)ccc2c3n(c(=NC(=O)c4cnc(N)nc4)nc12)CCN3", "viability, T/C", 22.6),
    ("C[C@@H](NC(=O)c1ncnc(N)c1Cl)c1ncc(C(=O)Nc2cc(C(F)(F)F)c(Cl)cn2)s1 + CC(Nc1ccc2c(c1)OCCn1cc(N3C(=O)OCC3C(F)F)nc1-2)C(N)=O", "viability, T/C", 65.3),
]

Give viability, T/C for all molecules that follow.
1. Cn1nccc1Nc1nccc(-c2ccn(C(CO)c3ccc(Cl)c(F)c3)c(=O)c2)n1 (stereo unspecified) + Cc1nc(NC(=O)N2CCCC2C(N)=O)sc1-c1ccnc(C(C)(C)C(F)(F)F)c1
2. CNC(=O)c1ccc(N2C(=S)N(c3ccc(C#N)c(C(F)(F)F)c3)C(=O)C2(C)C)cc1F + COc1c(OCCCN2CCOCC2)ccc2c3n(c(=NC(=O)c4cnc(N)nc4)nc12)CCN3
3. CCCS(=O)(=O)Nc1ccc(F)c(C(=O)c2c[nH]c3ncc(-c4ccc(Cl)cc4)cc23)c1F + COc1c(OCCCN2CCOCC2)ccc2c3n(c(=NC(=O)c4cnc(N)nc4)nc12)CCN3
4. C[C@@H](NC(=O)c1ncnc(N)c1Cl)c1ncc(C(=O)Nc2cc(C(F)(F)F)c(Cl)cn2)s1 + Cc1nc(NC(=O)N2CCCC2C(N)=O)sc1-c1ccnc(C(C)(C)C(F)(F)F)c1
5. CNC(=O)c1ccc(N2C(=S)N(c3ccc(C#N)c(C(F)(F)F)c3)C(=O)C2(C)C)cc1F + CC(Nc1ccc2c(c1)OCCn1cc(N3C(=O)OCC3C(F)F)nc1-2)C(N)=O

Return:
1: 38.8; 2: 13.8; 3: 6.42; 4: 70.8; 5: 53.5

---

Test system: 996289-038-R-J1-PDC spheroid viability
Test: Anticancer human tumor 996289-038-R-J1-PDC cell line growth inhibition [PI3K];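 also: luminescence used as a proxy for viable cell amount; spheroids exposed to compounds for seven days before viability read; percent viability relative to DMSO vehicle control as 100%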
Settings: second compound 0.316 µM; first compound 3.16 µM; active compounds read low; spheroids with HUVEC and MSC
Strictly below 70% in viability, T/C: Condition met. Otherwise: Condition not met.

Before answering, review these 3 worked examples.
# molecule, assigned.label
data = [
    ("CC(Cn1ccc(-c2ccc(C#N)c(Cl)c2)n1)NC(=O)c1cc(C(C)O)[nH]n1 (stereo unspecified) + CC(Nc1ncnc2nc[nH]c12)c1cc2cccc(Cl)c2c(=O)n1-c1ccccc1", "Condition not met"),
    ("CC(C)NCC(C(=O)N1CCN(c2ncnc3c2C(C)CC3O)CC1)c1ccc(Cl)cc1 (stereo unspecified) + COc1c(OCCCN2CCOCC2)ccc2c3n(c(=NC(=O)c4cnc(N)nc4)nc12)CCN3", "Condition met"),
    ("Cn1ncc(Cl)c1-c1cc(C(=O)NC(CN)Cc2cccc(F)c2)sc1Cl (stereo unspecified) + CC(Nc1ccc2c(c1)OCCn1cc(N3C(=O)OCC3C(F)F)nc1-2)C(N)=O", "Condition met"),
]

Next:
Enquiry: viability, T/C strictly < 70% for this molecule? CC1(C)CCC(Nc2ncc(C(F)(F)F)c(-c3c[nH]c4c(P(C)(C)=O)c(C#N)ccc34)n2)CN1 (stereo unspecified) + CC(Nc1ncnc2nc[nH]c12)c1cc2cccc(Cl)c2c(=O)n1-c1ccccc1
Return: Condition not met

---

System: 996289-038-R-J1-PDC spheroid viability
Assay: Anticancer human tumor 996289-038-R-J1-PDC cell line growth inhibition [PI3K];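 also: luminescence used as a proxy for viable cell amount; spheroids exposed to compounds for seven days before viability read; percent viability relative to DMSO vehicle control as 100%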
Settings: second compound 3.16 µM; first compound 1 µM; active compounds read low; spheroids with HUVEC and MSC
From the text: Combinatorial screen of targeted agents with the PI3K inhibitors inavolisib, alpelisib, duvelisib, and copanlisib in multi-cell type tumor spheroids A high-throughput screen of multi-cell type tumor spheroids was designed to identify active combinations of targeted small molecules and PI3K pathway inhibitors. […] Compounds. […] If the clinical Cmax for an agent had not been determined, the highest concentration tested was 10 microM. […]
Please go through the items and note down their viability, T/C.
Give bare numbers, in %.

Give viability, T/C for all molecules that follow.
1. CCN1CCN(Cc2ccc(Nc3ncc(F)c(-c4cc(F)c5nc(C)n(C(C)C)c5c4)n3)nc2)CC1 + Cc1nc(NC(=O)N2CCCC2C(N)=O)sc1-c1ccnc(C(C)(C)C(F)(F)F)c1
2. Cn1nccc1Nc1nccc(-c2ccn(C(CO)c3ccc(Cl)c(F)c3)c(=O)c2)n1 (stereo not given) + Cc1nc(NC(=O)N2CCCC2C(N)=O)sc1-c1ccnc(C(C)(C)C(F)(F)F)c1
3. CC1(C)CCC(Nc2ncc(C(F)(F)F)c(-c3c[nH]c4c(P(C)(C)=O)c(C#N)ccc34)n2)CN1 (stereo not given) + CC(Nc1ncnc2nc[nH]c12)c1cc2cccc(Cl)c2c(=O)n1-c1ccccc1
4. C=CC(=O)N1CCN(c2nc(=O)n(-c3c(C)ccnc3C(C)C)c3nc(-c4c(O)cccc4F)c(F)cc23)C(C)C1 (stereo not given) + Cc1nc(NC(=O)N2CCCC2C(N)=O)sc1-c1ccnc(C(C)(C)C(F)(F)F)c1
5. C#Cc1c(F)ccc2cc(O)cc(-c3ncc4c(N5CC6CCC(C5)N6)nc(OCC56CCCN5CC(F)C6)nc4c3F)c12 (stereo not given) + Cc1nc(NC(=O)N2CCCC2C(N)=O)sc1-c1ccnc(C(C)(C)C(F)(F)F)c1

Return:
1: 44.2; 2: 54.9; 3: 74.4; 4: 61.6; 5: 26.8

---

System: 996289-038-R-J1-PDC spheroid viability
Assay: Anticancer human tumor 996289-038-R-J1-PDC cell line growth inhibition [PI3K];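 also: luminescence used as a proxy for viable cell amount; spheroids exposed to compounds for seven days before viability read; percent viability relative to DMSO vehicle control as 100%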
Details: second compound 0.316 µM; first compound 0.1 µM; active compounds read low; spheroids with HUVEC and MSC
Field: class. Source value: viability, T/C. Ranges: label 0 = under 80%, label 1 = from 80% up to 90%, label 2 = 90% and over

Before answering, review these 5 worked examples.
# compound, assigned.label
measured = [
    ("Cn1ncc(Cl)c1-c1cc(C(=O)NC(CN)Cc2cccc(F)c2)sc1Cl (stereo not given) + CC(Nc1ccc2c(c1)OCCn1cc(N3C(=O)OCC3C(F)F)nc1-2)C(N)=O", "label 0"),
    ("CC(=O)c1c(C)c2cnc(Nc3ccc(N4CCNCC4)cn3)nc2n(C2CCCC2)c1=O + CC(Nc1ncnc2nc[nH]c12)c1cc2cccc(Cl)c2c(=O)n1-c1ccccc1", "label 1"),
    ("C[C@@H](NC(=O)c1ncnc(N)c1Cl)c1ncc(C(=O)Nc2cc(C(F)(F)F)c(Cl)cn2)s1 + CC(Nc1ncnc2nc[nH]c12)c1cc2cccc(Cl)c2c(=O)n1-c1ccccc1", "label 2"),
    ("CC1(C)CCC(CN2CCN(c3ccc(C(=O)NS(=O)(=O)c4ccc(NCC5CCOCC5)c([N+](=O)[O-])c4)c(Oc4cnc5[nH]ccc5c4)c3)CC2)=C(c2ccc(Cl)cc2)C1 + CC(Nc1ccc2c(c1)OCCn1cc(N3C(=O)OCC3C(F)F)nc1-2)C(N)=O", "label 0"),
    ("Cn1ncc(Cl)c1-c1cc(C(=O)NC(CN)Cc2cccc(F)c2)sc1Cl (stereo not given) + CC(Nc1ncnc2nc[nH]c12)c1cc2cccc(Cl)c2c(=O)n1-c1ccccc1", "label 2"),
]

Enquiry: Band assignment needed for C=CC(=O)N1CCN(c2nc(=O)n(-c3c(C)ccnc3C(C)C)c3nc(-c4c(O)cccc4F)c(F)cc23)C(C)C1 (stereo not given) + CC(Nc1ccc2c(c1)OCCn1cc(N3C(=O)OCC3C(F)F)nc1-2)C(N)=O please.
Return: label 0

Enquiry: Another: CC1(C)CCC(CN2CCN(c3ccc(C(=O)NS(=O)(=O)c4ccc(NCC5CCOCC5)c([N+](=O)[O-])c4)c(Oc4cnc5[nH]ccc5c4)c3)CC2)=C(c2ccc(Cl)cc2)C1 + Cc1nc(NC(=O)N2CCCC2C(N)=O)sc1-c1ccnc(C(C)(C)C(F)(F)F)c1
Return: label 1
